Taken from patent US20230339970A1.

- SYSTEM_UNDER_TEST: human recombinant GST cleaved CSNK1D (Homo sapiens)
- Construct: GST (cleaved yes)
- Sequence (P48730 whole entry): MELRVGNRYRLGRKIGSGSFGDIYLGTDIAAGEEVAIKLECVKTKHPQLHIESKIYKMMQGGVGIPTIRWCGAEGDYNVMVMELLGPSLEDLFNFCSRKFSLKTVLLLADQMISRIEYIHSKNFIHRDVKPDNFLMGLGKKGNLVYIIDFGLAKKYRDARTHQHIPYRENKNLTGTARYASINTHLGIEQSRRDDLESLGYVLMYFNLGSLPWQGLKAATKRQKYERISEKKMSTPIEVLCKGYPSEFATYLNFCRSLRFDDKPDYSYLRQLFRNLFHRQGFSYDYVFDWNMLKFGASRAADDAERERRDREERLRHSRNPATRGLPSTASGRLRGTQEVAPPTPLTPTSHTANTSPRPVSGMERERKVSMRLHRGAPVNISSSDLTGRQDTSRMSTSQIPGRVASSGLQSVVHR
- EXPERIMENT_SUMMARY: Purified Enzyme Assay (ADP-Glo CSNK1D Kinase Assay)
- CONDITION_DESCRIPTION: 2 nM CSNK1D; peptide substrate 150 μM; ATP 20 μM; 45 minutes at room temperature
With a cut-off of 7 nM, any IC50 strictly below it is called satisfied; any IC50 meeting it or above is called not satisfied.

COMPOUND | ASSIGNED_CATEGORY
Cc1cnn2ccc(-c3c(-c4ccc(F)cn4)nn4c3COC(C)(C)C4)cc12 | not satisfied
Cc1cc(-c2c(-c3ccc(F)cn3)nn3c2CC(C)(C)C3)c2cn[nH]c2n1 | satisfied
Cn1cnc(-c2nn3c(c2-c2ccnc4[nH]ncc24)COC(C)(C)C3)c1 | not satisfied
CC1(C)COc2c(-c3ccnc4cc[nH]c34)c(-c3ccc(F)cn3)nn2C1 | not satisfied
COC[C@@]1(C)CCc2c(-c3cc(C)nc4[nH]ncc34)c(-c3ccc(F)cn3)nn2C1 (single isomer, unassigned) | satisfied
Fc1ccc(-c2nn3c(c2-c2c(F)cnc4[nH]ncc24)COC2(C3)CC2(F)F)nc1 (single isomer, unassigned) [Example 435] | satisfied
Fc1ccc(-c2nn3c(c2-c2ccnc4[nH]ncc24)CC(F)(F)CC3)cc1 | not satisfied

----------
- SYSTEM_UNDER_TEST: human CSNK1D (Homo sapiens, UniProt P48730)
- EXPERIMENT_SUMMARY: Whole Cell nBRET CSNK1D Binding Assay
- CONDITION_DESCRIPTION: living CHO cells stably expressing human CSNK1D tagged with nanoluciferase; NanoBret tracer 130 nM; 2 hours at 37 C
pIC50: −log10 of the molar value.
ATTRIBUTE_MEASURED: pIC50

MOLECULE | ATTRIBUTE_MEASURED | VALUE_REPORTED
Fc1ccc(-c2nn3c(c2-c2ccncc2)COCC3)cc1 | pIC50 | 7.02
C[C@@]1(C(F)(F)F)Cn2nc(-c3ccc(F)cn3)c(-c3ccn4nccc4c3)c2CO1 (single isomer, unassigned) | pIC50 | 5.41
CC1(C)Cn2nc(-c3ccc(F)cn3)c(-c3ccn4nccc4c3)c2CO1 | pIC50 | 6.91
[2H]C([2H])([2H])C1(C([2H])([2H])[2H])Cn2nc(-c3ccc(F)cn3)c(-c3ccnc4[nH]nc(Cl)c34)c2CO1 | pIC50 | 7.52
Fc1ccc(-c2nn3c(c2-c2ccnc4[nH]ncc24)CC2(CC2)C3)cc1 | pIC50 | 7.89
CC1(C)Cn2nc(-c3ccc(F)cc3)c(-c3ccnc4[nH]ncc34)c2CO1 | pIC50 | 8.52
Cc1nc(-c2c(-c3ccc(F)cn3)nn3c2CC[C@H]2[C@@H]3C2(F)F)c2cn[nH]c2n1 (single isomer, unassigned) | pIC50 | 6.46

----------
- SYSTEM_UNDER_TEST: human recombinant GST cleaved CSNK1D (Homo sapiens)
- Construct: GST (cleaved yes); purchased University of Dundee clone DU 19064
- EXPERIMENT_SUMMARY: Purified Enzyme Assay (ADP-Glo CSNK1D Kinase Assay)
- Format: biochemical
- CONDITION_DESCRIPTION: 2 nM CSNK1D; peptide substrate 150 μM; ATP 20 μM; 45 minutes at room temperature
ATTRIBUTE_MEASURED: log10(IC50) (log10 of the value in nM)

MOLECULE | log10(IC50)
CCC(=O)Nc1cc(-c2c(-c3ccc(F)cn3)nn3c2OCCC3)ccn1 | 0.78
CC1(C)Cn2nc(-c3ccc(Cl)cn3)c(-c3ccnc4[nH]ncc34)c2CO1 | 1.26
Fc1ccc(-c2nn3c(c2-c2ccnc4[nH]ncc24)CCC(F)(F)C3)cc1 | 0.48
C[C@]1(C(F)(F)F)Cn2nc(-c3ccc(F)cc3)c(-c3ccn4nccc4c3)c2CO1 (single isomer, unassigned) | 2.17
[2H]C([2H])([2H])C1(C([2H])([2H])[2H])Cn2nc(-c3ccc(F)cn3)c(-c3cc(C(F)F)nc4[nH]ncc34)c2CO1 | 0.70
Cc1cc(-c2c(-c3ccc(F)cn3)nn3c2CCC2C3C2(F)F)c2cn[nH]c2n1 (racemic) | 0.60
Fc1ccc(-c2nn3c(c2-c2ccnc4[nH]ncc24)OCC2(C3)CC2(F)F)nc1 (single isomer, unassigned) [Example 478] | 0.00
